Values compiled from patent US9040498B2.

# System: cytomegalovirus (CMV)
# protocol-notes: Anti-CMV activity in HEL cells (both strains)
# Assay type: cell-based
# test-context: range over the CMV strains; read-out: EC50 against CMV in HEL cells
experimental-readout: EC50

- smiles-str: "CCCCc1cn(-c2nc(O)c3ncn([C@@H]4O[C@H](CO)[C@@H](O)[C@H]4O)c3n2)nn1"
  experimental-readout: "EC50"
  result: "39 to 73 µM"

---

pEC50 values by entry
# Tested on: CMV AD-169 strain
# protocol-notes: Anti-CMV activity in HEL cell cultures, AD-169 strain
# Type: cell-based, cytomegalovirus
# test-context: HEL cell cultures; reduce virus plaque formation by 50%; virus input 100 PFU
pEC50: −log10 of the molar value.

- molecule: "OCc1cn(-c2nc(O)c3ncn([C@@H]4O[C@H](CO)[C@@H](O)[C@H]4O)c3n2)nn1 [Compound 20]"
  pEC50: "< 3.57"
- molecule: "OC[C@H]1O[C@@H](n2cnc3c(O)nc(-n4cc(-c5ccc(F)cc5)nn4)nc32)[C@H](O)[C@@H]1O [Compound 24]"
  pEC50: "< 3.64"
- molecule: "OC[C@H]1O[C@@H](n2cnc3c(O)nc(-n4cc(-c5ccccc5)nn4)nc32)[C@H](O)[C@@H]1O [Compound 17]"
  pEC50: "< 4.30"
